experiment: in vitro; conditions: human, HEK293T cells
Description: Cytotoxicity against HEK293T cells assessed as inhibition of cell growth incubated for 24 hrs by CCK-8 assay
A collection of compounds and their measured IC50 at 24 h
Write the value in µM as a bare number.

Look over these answered cases.
compound	IC50 at 24 h / µM
COC(=O)[C@H](CS[C@H](CC=C(C)C)C1=CC(=O)c2c(O)ccc(O)c2C1=O)NC(=O)CCCC[C@@H]1CCSC(c2cccc(Cl)c2Cl)S1 (stereo partly drawn)	98.2
COC(=O)[C@H](CS[C@H](CC=C(C)C)C1=CC(=O)c2c(O)ccc(O)c2C1=O)NC(=O)CCCC[C@@H]1CCSC(c2cccc(C(F)(F)F)c2)S1 (stereo partly drawn)	83.8

Now consider the entry below.
input: # return recorded IC50 at 24 h for input COC(=O)[C@H](CS[C@H](CC=C(C)C)C1=CC(=O)c2c(O)ccc(O)c2C1=O)NC(=O)CCCC[C@@H]1CCSC(c2cccc(Br)c2)S1 (stereo partly drawn)
output: 96.7

====

system: NCI-H1975; experiment: cells; format: functional, cell-based; details: Homo sapiens, NCI-H1975, 24 h
Description: Antiproliferative activity against human NCI-H1975 cells assessed as inhibition of cell growth incubated for 24 hrs by CCK-8 assay
A collection of compounds and their measured IC50
Write the value in µM as a bare number.

compound	IC50 [µM]
COC(=O)[C@H](CS[C@H](CC=C(C)C)C1=CC(=O)c2c(O)ccc(O)c2C1=O)NC(=O)CCCC[C@@H]1CCSC(c2ccc([N+](=O)[O-])cc2)S1 (stereo partly specified)	17
COC(=O)[C@H](CS[C@H](CC=C(C)C)C1=CC(=O)c2c(O)ccc(O)c2C1=O)NC(=O)CCCC[C@@H]1CCSC(c2cccc(Br)c2)S1 (stereo partly specified)	7.4
COC(=O)[C@H](CS[C@H](CC=C(C)C)C1=CC(=O)c2c(O)ccc(O)c2C1=O)NC(=O)CCCC[C@@H]1CCSC(C2CCCCC2)S1 (stereo partly specified)	13.3
COC(=O)[C@H](CS[C@H](CC=C(C)C)C1=CC(=O)c2c(O)ccc(O)c2C1=O)NC(=O)CCCC[C@@H]1CCSC(c2ccc(Br)cc2)S1 (stereo partly specified)	4.68

input: GET IC50 where system = NCI-H1975 and item = COC(=O)[C@H](CS[C@H](CC=C(C)C)C1=CC(=O)c2c(O)ccc(O)c2C1=O)NC(=O)CCCC[C@@H]1CCSC(c2ccccc2Cl)S1 (stereo partly specified)
output: 8.3

input: GET IC50 where system = NCI-H1975 and item = COC(=O)[C@H](CS[C@H](CC=C(C)C)C1=CC(=O)c2c(O)ccc(O)c2C1=O)NC(=O)CCCC[C@@H]1CCSC(c2ccc(OCc3ccccc3)cc2)S1 (stereo partly specified)
output: 15.7

====

test system: HCC827; test: cells; type: functional, cell-based; settings: Homo sapiens, HCC827, 24 h
Description: Antiproliferative activity against human HCC827 cells assessed as inhibition of cell growth incubated for 24 hrs by CCK-8 assay
A collection of compounds and their measured IC50
Number plus unit, in that order.

Look over these answered cases.
compound	target_entity	IC50
COC(=O)[C@H](CS[C@H](CC=C(C)C)C1=CC(=O)c2c(O)ccc(O)c2C1=O)NC(=O)CCCC[C@@H]1CCSC(c2ccc(Br)cc2)S1 (stereo not given in full)	HCC827	13.2 µM
COC(=O)[C@H](CS[C@H](CC=C(C)C)C1=CC(=O)c2c(O)ccc(O)c2C1=O)NC(=O)CCCC[C@@H]1CCSC(C2CCCCC2)S1 (stereo not given in full)	HCC827	11.5 µM
COC(=O)[C@H](CS[C@H](CC=C(C)C)C1=CC(=O)c2c(O)ccc(O)c2C1=O)NC(=O)CCCC[C@@H]1CCSC(c2ccccc2C)S1 (stereo not given in full)	HCC827	5.19 µM
COC(=O)[C@H](CS[C@H](CC=C(C)C)C1=CC(=O)c2c(O)ccc(O)c2C1=O)NC(=O)CCCC[C@@H]1CCSC(c2ccc(C(C)C)cc2)S1 (stereo not given in full)	HCC827	4.21 µM
COC(=O)[C@H](CS[C@H](CC=C(C)C)C1=CC(=O)c2c(O)ccc(O)c2C1=O)NC(=O)CCCC[C@@H]1CCSC(c2ccc(C(F)(F)F)cc2)S1 (stereo not given in full)	HCC827	7.15 µM
COC(=O)[C@H](CS[C@H](CC=C(C)C)C1=CC(=O)c2c(O)ccc(O)c2C1=O)NC(=O)CCCC[C@@H]1CCSC(c2cccc(Br)c2)S1 (stereo not given in full)	HCC827	11.8 µM
COC(=O)[C@H](CS[C@H](CC=C(C)C)C1=CC(=O)c2c(O)ccc(O)c2C1=O)NC(=O)CCCC[C@@H]1CCSC(c2ccc(OC)cc2)S1 (stereo not given in full)	HCC827	6.44 µM
COC(=O)[C@H](CS[C@H](CC=C(C)C)C1=CC(=O)c2c(O)ccc(O)c2C1=O)NC(=O)CCCC[C@@H]1CCSC(c2ccccc2Cl)S1 (stereo not given in full)	HCC827	8.31 µM
CC(C)=CC[C@@H](O)C1=CC(=O)c2c(O)ccc(O)c2C1=O	HCC827	9.21 µM

Now consider the entry below.
input: # return recorded IC50 for input COC(=O)[C@H](CS[C@H](CC=C(C)C)C1=CC(=O)c2c(O)ccc(O)c2C1=O)NC(=O)CCCC[C@@H]1CCSC(c2ccc([N+](=O)[O-])cc2)S1 (stereo not given in full)
output: 25.9 µM

====

system: A549; assay: cells; type: functional, cell-based; settings: Homo sapiens, A549, 24 h
Description: Antiproliferative activity against human A549 cells assessed as inhibition of cell growth incubated for 24 hrs by CCK-8 assay
Response field label: string, one of YES (IC50 strictly below 10 µM) or NO.

For orientation, consider the following solved cases.
molecule	target_entity	class_assignment
COC(=O)[C@H](CS[C@H](CC=C(C)C)C1=CC(=O)c2c(O)ccc(O)c2C1=O)NC(=O)CCCC[C@@H]1CCSC(c2ccc([N+](=O)[O-])cc2)S1 (stereo partly drawn)	A549	NO
COC(=O)[C@H](CS[C@H](CC=C(C)C)C1=CC(=O)c2c(O)ccc(O)c2C1=O)NC(=O)CCCC[C@@H]1CCSC(c2ccc(Cl)cc2)S1 (stereo partly drawn)	A549	NO
COC(=O)[C@H](CS[C@H](CC=C(C)C)C1=CC(=O)c2c(O)ccc(O)c2C1=O)NC(=O)CCCC[C@@H]1CCSC(c2ccccc2Cl)S1 (stereo partly drawn)	A549	YES

input: Below 10 µM on IC50? Entry COC(=O)[C@H](CS[C@H](CC=C(C)C)C1=CC(=O)c2c(O)ccc(O)c2C1=O)NC(=O)CCCC[C@@H]1CCSC(c2cccc(Cl)c2Cl)S1 (stereo partly drawn)
output: NO

input: Below 10 µM on IC50? Entry COC(=O)[C@H](CS[C@H](CC=C(C)C)C1=CC(=O)c2c(O)ccc(O)c2C1=O)NC(=O)CCCC[C@@H]1CCSC(c2cccc(C(F)(F)F)c2)S1 (stereo partly drawn)
output: YES

input: Below 10 µM on IC50? Entry COC(=O)[C@H](CS[C@H](CC=C(C)C)C1=CC(=O)c2c(O)ccc(O)c2C1=O)NC(=O)CCCC[C@@H]1CCSC(c2ccc(Br)cc2)S1 (stereo partly drawn)
output: NO

input: Below 10 µM on IC50? Entry "CC(C)=CC[C@@H](O)C1=CC(=O)c2c(O)ccc(O)c2C1=O"
output: YES

input: Below 10 µM on IC50? Entry COC(=O)[C@H](CS[C@H](CC=C(C)C)C1=CC(=O)c2c(O)ccc(O)c2C1=O)NC(=O)CCCC[C@@H]1CCSC(c2ccc(C(C)C)cc2)S1 (stereo partly drawn)
output: YES

input: Below 10 µM on IC50? Entry COC(=O)[C@H](CS[C@H](CC=C(C)C)C1=CC(=O)c2c(O)ccc(O)c2C1=O)NC(=O)CCCC[C@@H]1CCSC(c2ccccc2C)S1 (stereo partly drawn)
output: YES

====

tested on: HCC827; assay: Antiproliferative activity against human HCC827 cells transfected with siRNA assessed as inhibition of cell growth incubated for 24 hrs by CCK-8 assay; type: functional, cell-based; settings: HCC827, 24 h
measurement_kind: IC50 (µM)
Write the value in µM as a bare number.

input: # return recorded IC50 for input COC(=O)[C@H](CS[C@H](CC=C(C)C)C1=CC(=O)c2c(O)ccc(O)c2C1=O)NC(=O)CCCC[C@@H]1CCSC(c2ccccc2C)S1 (stereo partly specified)
output: 6

====

A collection of compounds and their measured pIC50
test system: A549; assay: cells; type: functional, cell-based; details: Homo sapiens, A549, 24 h
pIC50 here is simply -log10 of the concentration when that concentration is written in mol/L.

Look over these answered cases.
compound	pIC50
COC(=O)[C@H](CS[C@H](CC=C(C)C)C1=CC(=O)c2c(O)ccc(O)c2C1=O)NC(=O)CCCC[C@@H]1CCSC(c2ccc(C(F)(F)F)cc2)S1 (stereo partly drawn)	5.19
COC(=O)[C@H](CS[C@H](CC=C(C)C)C1=CC(=O)c2c(O)ccc(O)c2C1=O)NC(=O)CCCC[C@@H]1CCSC(C2CCCCC2)S1 (stereo partly drawn)	4.74

Now consider the entry below.
input: # return recorded pIC50 for input COC(=O)[C@H](CS[C@H](CC=C(C)C)C1=CC(=O)c2c(O)ccc(O)c2C1=O)NC(=O)CCCC[C@@H]1CCSC(c2ccccc2)S1 (stereo partly drawn)
output: 5.07
